SYSTEM_TESTED: Follistatin-related protein 3 (Homo sapiens)
ASSAY_PROTOCOL: FSTL3 binders on small-molecule microarrays, primary screen, biochemical, small-molecule microarray, 635 nm fluorescence (AID 1105);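 note: score merges emission near 667 nm and signal to noise per printed spot across three slides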
TEST_CONDITIONS: FSTL3 binding, higher = more signal
Values of composite z-score greater than or equal to 1 map to T; values below map to F.

SMILES_CODE | DISCRETE_LABEL
C=C(COC)C(=O)CC[C@H](OC(=O)c1ccccc1-c1ccccc1C(=O)O)c1cccc(OCCO)c1 | T
O=C(CS)NCCCCCNC(=O)[C@H]1C[C@H]2C(=O)N3CCC[C@H]3C(=O)N2[C@H]1c1ccc(O)cc1 | F
C=C(CCCC)/C(=C/C[C@@H](OC(=O)c1ccncc1)c1ccc(CO)o1)c1cnc2ccccc2c1 | T
COCCOC(=O)N1C(=O)[C@@]2(c3cc(C#CCCO)ccc31)[C@H](C(=O)N1CCCCCCC1)[C@H]1C(=O)O[C@H](c3ccccc3)[C@H](c3ccccc3)N1[C@@H]2c1ccc(O)cc1 | T
COCCOC(=O)N1C(=O)[C@@]2(c3cc(C#CC4=CCCCC4)ccc31)[C@H](C(=O)NC[C@H](O)c1ccccc1)[C@H]1C(=O)O[C@H](c3ccccc3)[C@H](c3ccccc3)N1[C@@H]2c1ccc(OCCO)cc1 | T

---

ASSAY_PROTOCOL: binders of probe aFSTL3 on microarray, primary screen, stem cell growth factor project, biochemical, small-molecule microarray, fluorescence 635/667 (AID 1064);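 note: measures binding of the biotinylated anti-FSTL3 antibody to printed compounds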
TEST_CONDITIONS: higher = more signal
Respond with condition met for composite z-score values of 0.5 and above, condition not met for values below.

SMILES_CODE | DISCRETE_LABEL
NC(=O)NCC#Cc1ccc2c(c1)[C@]1(C(=O)N2)[C@H](C(=O)N2CCCCCCC2)[C@H]2C(=O)O[C@H](c3ccccc3)[C@H](c3ccccc3)N2[C@@H]1c1ccccc1OCCO | condition met
C=CC[C@]1(C(N)=O)N=C(c2ccc(OCCCO)cc2)O[C@H]1c1ccccc1CN=[N+]=[N-] | condition met
Cc1ccc(N2C(=O)c3ccccc3[C@@H](C(=O)NCc3ccccc3)[C@@H]2c2ccc(CO)cc2)nc1 | condition not met
[N-]=[N+]=NCc1ccccc1C[C@]1(C(=O)N2CCCCC2)N=C(c2ccc(OCCCO)cc2)O[C@H]1c1ccccc1CN=[N+]=[N-] | condition not met
COc1cc(Cc2cc3c(c(CCc4ccccc4)n2)[Si](C(C)C)(C(C)C)OC3)cc(OC)c1OC | condition not met
COC(=O)C[C@H]1O[C@]2(C(=O)N(Cc3ccccc3)c3ccc(I)cc32)[C@@H](C)[C@@H]1[Si](C)(C)c1ccc(OC)cc1 | condition not met
O=C(N1CCCCC1)[C@@]1(CCS(=O)(=O)c2ccccc2)N=C(c2ccc(OCCCO)cc2)O[C@H]1c1ccccc1 | condition not met

---

SYSTEM_TESTED: E3 ubiquitin-protein ligase XIAP (Homo sapiens)
ASSAY_PROTOCOL: XIAP binders, primary screen, biophysical, small-molecule microarray, fluorescence 635 nm (AID 1181);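 note: score merges 667 nm emission and signal to noise over triplicate slides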
TEST_CONDITIONS: small-molecule microarray binding, higher = more signal
Class key for composite z-score values: lower range (below -0.1), middle range (-0.1 to below 0.02), upper range (0.02 or more)

COMPOUND | DISCRETE_LABEL
C=CC[C@]1(C(N)=O)N=C(c2ccc(OCCCO)cc2)O[C@H]1c1ccccc1CN=[N+]=[N-] | lower range
CCCC[C@@H]1C[C@H]1[C@@H](NC(=O)c1ccccc1)c1ccccc1C(F)(F)F | lower range
CCOC(=O)C[C@H]1[C@H](OC(=O)Cc2ccc3c(c2)OCO3)[C@@H](NC(=O)CC(C)C)c2cc(OCCCO)ccc2N1C(=O)c1ccccc1 | middle range
Cc1ccc(S[C@]2(C(=O)NC3CC3)CC(=O)N(Cc3cc(C(F)(F)F)cc(C(F)(F)F)c3)[C@@H]2c2ccc(CO)cc2)cc1 | upper range
C=C(COC)/C(=C/C[C@@H](OC(C)=O)c1cccc(OCCO)c1)c1cc(C(=O)OC)ccc1OC | upper range
C=C(CCCC)/C(=C/C[C@H](OC(=O)c1ccncc1)c1cccc(OCCO)c1)c1cc(C(=O)OC)ccc1OC | middle range
C=C(CCCC)C(=O)CC[C@@H](OC(C)=O)c1ccccc1OCCO | lower range
CCc1cccc(NC(=O)O[C@H]2[C@H](OC(=O)Nc3ccccc3)[C@@H](OC(=O)Nc3ccccc3)[C@@H](OC)O[C@@H]2CO)c1 | middle range
COc1ccc([Si](C)(C)[C@@H]2[C@@H](CC(=O)N(CCO)Cc3ccccc3)O[C@]3(C(=O)N(Cc4cccc(N5CCC5=O)c4)c4ccccc43)[C@H]2C)cc1 | upper range
COC(=O)C1=C(C)N(Cc2ccccc2)c2c(C(=O)OC)c(C(=O)OC)c(C(=O)OC)c(=O)n2[C@@H]1c1ccccc1 | middle range
C=CCc1cccc([C@@H]2[C@@H](C)CC[C@H]3C(=O)N4[C@H](c5cccc(CC=C)c5)[C@@H](C)CC[C@H]4C(=O)N23)c1 | lower range
CC(=O)NCCCC[C@@H]1NC(=O)[C@@H]2C[C@H](C(=O)NCc3ccc(F)cc3)[C@H](c3cccc(OCCO)c3)N2C1=O | lower range
CN1C2C=C(c3ccc(CO)cc3)C(C3C(=O)N(C(N)=O)C(=O)C32)C1c1cccs1 (centres undefined) | lower range
C=CCOC(=O)[C@@H]1[C@H]2C(=O)O[C@H](c3ccccc3)[C@H](c3ccccc3)N2[C@H](c2ccc(OCCOC(=O)[C@H]3C[C@H]4C(=O)N[C@@H](CCCCNC(C)=O)C(=O)N4[C@H]3c3ccc(O)cc3)cc2)[C@@]12C(=O)Nc1ccc(I)cc12 | middle range
C[C@@H]1C=CCC(=O)OC[C@H]2O[C@@H](C=C[C@@H]2O)[C@H](C)C=CCC(=O)OC[C@H]2O[C@H]1C=C[C@@H]2O | middle range
C=CCN1C(=O)[C@@]2(O[C@@H](CCn3cc([C@H](O)c4ccccc4)nn3)[C@H]([Si](C)(C)c3ccc(OC)cc3)[C@H]2C)c2cc(N3CCOC3=O)ccc21 | upper range
COCCOC(=O)N1C(=O)[C@@]2(c3cc(C#CC4(O)CCCCCC4)ccc31)[C@H](C(=O)N1CCCCCCC1)[C@H]1C(=O)O[C@H](c3ccccc3)[C@H](c3ccccc3)N1[C@@H]2c1ccc(O)cc1 | upper range
[N-]=[N+]=Nc1ccccc1C[C@@]1(C(=O)N2CCOCC2)N=C(c2ccc(OCCCO)cc2)O[C@@H]1c1ccccc1N=[N+]=[N-] | lower range
CC/C=C/C(=O)N(C[C@@H]1CCCO1)[C@@H]1CC(C(=O)NCCO)=C[C@H](Oc2c(I)cc(CO)cc2OC)[C@H]1O | lower range
CCCCO[C@H]1C[C@H]2C(Br)=C[C@@]1(CO)C(=O)[C@]21CO1 | middle range
COCCCNC(=O)[C@@]1(Sc2ccc(C)cc2)CC(=O)N(Cc2cc(C(F)(F)F)cc(C(F)(F)F)c2)[C@@H]1c1ccc(CO)cc1I | upper range
Cc1ccc(N2C(=O)c3ccccc3[C@](C)(C(=O)O)[C@@H]2c2ccc(CO)cc2)nc1 | middle range
CCCNC(=O)[C@@H]1c2ccccc2C(=O)N(C2CCCCC2)[C@H]1c1ccc(CO)cc1 | upper range
O=C(NCc1ccccc1)[C@@]1(Cc2ccccc2)COC(c2ccc(OCCCO)cc2)=N1 | lower range
NC(=O)[C@H]1[C@@H]2C(=O)O[C@@H](c3ccccc3)[C@@H](c3ccccc3)N2[C@@H](c2ccc(O)cc2)[C@]12C(=O)Nc1ccc(C#CCCO)cc12 | upper range
CC(=O)NCCCC[C@@H]1NC(=O)[C@@H]2C[C@H](C(=O)NCCCCCNC(=O)CS)[C@H](c3ccc(O)cc3)N2C1=O | lower range
C=C(COC)C(=O)CC[C@H](OC(=O)c1ccccc1-c1ccccc1C(=O)O)c1cccc(OCCO)c1 | upper range
C[C@@H]1CC[C@H]2C(=O)N3CCC[C@H]3C(=O)N2[C@H]1c1ccc(Br)cc1 | lower range

---

System: Human papillomavirus type 1a E7 protein (residues 1-88)
ASSAY_PROTOCOL: HPV1a E7 small-molecule binders, primary screen, biochemical, small-molecule microarray, residues 1-88, 635 nm (AID 1129)
TEST_CONDITIONS: small-molecule microarray binding, fluorescence 635 nm; higher = more signal
Below, each entry is listed with its recorded composite z-score.
QUANTITY_KIND: composite z-score

SMILES_CODE | QUANTITY_KIND | EXPERIMENTAL_RESULT
C=C(COC)/C(=C/C[C@H](OC(C)=O)c1ccc(OCCO)cc1)c1cnc2ccccc2c1 | composite z-score | 1.14
Cc1ccc(N2C(=O)c3ccccc3[C@@H](C(=O)NCc3ccccc3)[C@@H]2c2ccc(CO)cc2)nc1 | composite z-score | -1.26
COC(=O)[C@@]1(Cc2ccccc2N=[N+]=[N-])N=C(c2ccc(OCCCO)cc2)O[C@H]1c1ccccc1CN=[N+]=[N-] | composite z-score | 1.02
CO[C@H]1COC(=O)[C@H](C)COC(=O)[C@H](Cc2ccccc2)NC(=O)CC=C[C@H]1C | composite z-score | -1.55
CC(C)[Si](OCCCNS(=O)(=O)c1ccc(Br)cc1)(C(C)C)C(C)C | composite z-score | 1.04
CN(C)CCCC[C@@H]1NC(=O)[C@@H]2C[C@H](C(=O)O)[C@H](c3ccc(O)cc3)N2C1=O | composite z-score | 0.704
C=CC[C@]1(C(=O)O)N=C(c2ccc(OCCCO)cc2)O[C@H]1c1ccccc1 | composite z-score | -0.531
CCCN1C(=O)[C@@]2(CCS(=O)(=O)c3ccccc3)N=C(c3ccc(OCCCO)cc3)O[C@H]2c2ccccc21 | composite z-score | 1.23
COC(=O)Cn1c(C(=O)N2CCCC2)cc2c1C[C@H]1CN(C(=O)c3ccccc3)[C@@](Cc3ccc(OC)cc3)(C(=O)OC)[C@@H]21 | composite z-score | 1.24
CCCC=C(CCC)[C@@H](NC(=O)c1ccc(C(F)(F)F)cc1)c1ccccc1 | composite z-score | 0.788
COc1ccc([Si](C)(C)[C@H]2[C@H](CC(=O)N3Cc4ccccc4C[C@H]3CO)O[C@@]3(C(=O)N(Cc4cccc(N5CCOC5=O)c4)c4ccccc43)[C@@H]2C)cc1 | composite z-score | 0.533
C=C(CCCC)/C(=C/C[C@@H](OC(=O)c1ccncc1)c1ccc(CO)o1)c1cnc2ccccc2c1 | composite z-score | 0.723
COCCCNC(=O)[C@@]1(c2ccc([N+](=O)[O-])cc2)CC(=O)N(C2CCCCC2)[C@@H]1c1ccc(CO)cc1 | composite z-score | 0.542
CO[C@H]1COC(=O)CC=C[C@H](C)COC(=O)[C@@H](OCc2ccccc2)C=C[C@@H]1C | composite z-score | -0.67
CN(C)CCCC[C@@H]1NC(=O)[C@@H]2C[C@H](C(=O)NCCCCCNC(=O)CS)[C@H](c3ccc(O)cc3)N2C1=O | composite z-score | 1.19
CCN1C(C)=C(C(=O)OC)[C@@H](c2ccccc2)N2C(=O)[C@@]3(C(=O)OC)O[C@@]12[C@@H]1C(=O)N(C)C(=O)[C@@H]13 | composite z-score | 0.812
